biological target: T1, recombinant human EGFR extracellular domain with 6xHis (human, UniProt P00533 25-645); experiment: SPR; EGFR ECD saturated with mix N=6: 1261+1347+992+1024+1030+1361
T1 construct: In-house protein; also called 6xHis EGFR ECD; soluble human EGFR ECD; not shown: 6xHis tag
property: Inhibition Sample mAb
Could you kindly put the unit after your number?

Entry antibody 992 (antibody, human IgG1, kappa, V domains shown, Chimeric mouse variable / human IgG1 kappa; the light chain entry includes the human kappa constant region; the end of the range is counted on the printed entry) VH: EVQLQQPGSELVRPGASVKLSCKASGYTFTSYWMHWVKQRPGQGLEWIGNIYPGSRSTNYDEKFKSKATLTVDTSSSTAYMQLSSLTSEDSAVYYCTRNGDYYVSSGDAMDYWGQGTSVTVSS VL: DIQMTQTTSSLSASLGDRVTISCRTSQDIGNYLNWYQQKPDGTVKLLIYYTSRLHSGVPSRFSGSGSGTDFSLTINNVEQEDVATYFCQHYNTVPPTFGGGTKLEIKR , Inhibition Sample mAb reported as 116%
